Kindly state enrichment ratio for each of the entries shown.
B1: PhoQ; a variant is named by its letters at X, in order, P23837 (parent)
chain: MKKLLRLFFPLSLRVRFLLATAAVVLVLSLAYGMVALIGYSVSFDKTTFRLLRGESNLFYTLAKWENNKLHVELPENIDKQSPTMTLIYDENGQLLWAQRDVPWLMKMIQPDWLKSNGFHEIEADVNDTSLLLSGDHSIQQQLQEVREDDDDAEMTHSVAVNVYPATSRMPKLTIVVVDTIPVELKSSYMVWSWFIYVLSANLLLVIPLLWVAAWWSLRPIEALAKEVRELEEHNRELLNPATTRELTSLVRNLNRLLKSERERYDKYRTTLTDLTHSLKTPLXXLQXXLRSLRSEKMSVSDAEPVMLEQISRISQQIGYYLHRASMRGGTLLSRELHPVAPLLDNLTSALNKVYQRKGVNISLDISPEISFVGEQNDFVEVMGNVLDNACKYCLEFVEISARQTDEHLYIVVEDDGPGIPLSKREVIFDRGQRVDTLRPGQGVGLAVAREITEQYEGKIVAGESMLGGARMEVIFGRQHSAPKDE

# Variants of: B1
# Experimental protocol: enrichment ratio after two sorts for PhoP signalling (ratio (wild type AVST 3.29)); higher = more functional
# Reported conditions: with PhoP (E. coli)
The full ranking holds about 140,000 sequences; the median of “enrichment ratio after two sorts for PhoP signalling” is about 0, and the highest 2% start at about 11. The list comes from a sample in which the highest values are over-represented; it also holds close analogues and randomly drawn sequences.
The answer should be written as a number, with no unit following it.

Query: Tell me enrichment ratio reported for `AMMQ`
Response: 13.1

Query: Tell me enrichment ratio reported for `AMTL`
Response: 4.39

Query: Tell me enrichment ratio reported for `ADII`
Response: 1.41

Query: Tell me enrichment ratio reported for `ATGI`
Response: 13.1

Query: Tell me enrichment ratio reported for `TIGS`
Response: 15

Query: Tell me enrichment ratio reported for `AIGF`
Response: 11.6

Query: Tell me enrichment ratio reported for `AMMV`
Response: 21.8

Query: Tell me enrichment ratio reported for `TSGI`
Response: 12.8

Query: Tell me enrichment ratio reported for `TTGI`
Response: 9.44

Query: Tell me enrichment ratio reported for `AAII`
Response: 12.4

Query: Tell me enrichment ratio reported for `TKTL`
Response: 16

Query: Tell me enrichment ratio reported for `TMGI`
Response: 20.6

Query: Tell me enrichment ratio reported for `ATGS`
Response: 5.38

Query: Tell me enrichment ratio reported for `AHTL`
Response: 6.56

Query: Tell me enrichment ratio reported for `TMTF`
Response: 11.5

Query: Tell me enrichment ratio reported for `TGGF`
Response: 15

Query: Tell me enrichment ratio reported for `TMHF`
Response: 1.51

Query: Tell me enrichment ratio reported for `TIQQ`
Response: 16.4

Query: Tell me enrichment ratio reported for `AVTL`
Response: 12.5

Query: Tell me enrichment ratio reported for `AMMS`
Response: 1.12

Query: Tell me enrichment ratio reported for `THGF`
Response: 8.21
